Ref: ChEMBL document CHEMBL3872225

- Protocol description: Cytotoxicity against African green monkey Vero cells assessed as reduction in cell viability measured after 72 hrs by MTT assay
- Assay type: toxicity, cell-based
- Measurement conditions: Chlorocebus sabaeus (African green monkey)
Can you tell me IC50 at 72 h for the items I'm about to list?

Given item "CCCc1nc2ccccc2n1C(=O)c1cccc2ccccc12" , the value recorded as its IC50 at 72 h is > 10 µM

Given item "COc1ccc(C(=O)n2c(CC(C)C)nc3ccccc32)cc1" , the value recorded as its IC50 at 72 h is > 10 µM

Given item "COc1ccc(C(=O)n2c(C(C)(C)C)nc3ccccc32)cc1" , the value recorded as its IC50 at 72 h is > 10 µM

====

- Target desc: Cannabinoid receptor 1 (Homo sapiens, UniProt P21554)
- Sequence (P21554 whole entry): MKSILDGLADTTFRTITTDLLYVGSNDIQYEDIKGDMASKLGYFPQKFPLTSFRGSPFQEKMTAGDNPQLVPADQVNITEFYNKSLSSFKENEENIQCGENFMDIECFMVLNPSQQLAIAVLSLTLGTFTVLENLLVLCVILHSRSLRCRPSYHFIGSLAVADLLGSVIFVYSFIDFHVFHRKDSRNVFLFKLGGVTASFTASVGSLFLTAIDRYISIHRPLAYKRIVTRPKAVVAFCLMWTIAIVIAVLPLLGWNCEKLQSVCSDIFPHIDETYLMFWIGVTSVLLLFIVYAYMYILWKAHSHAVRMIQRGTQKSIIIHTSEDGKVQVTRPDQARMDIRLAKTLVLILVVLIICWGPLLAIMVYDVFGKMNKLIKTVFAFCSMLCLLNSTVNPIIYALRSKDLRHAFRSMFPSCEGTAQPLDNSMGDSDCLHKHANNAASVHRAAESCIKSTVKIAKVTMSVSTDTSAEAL
- Protocol description: Displacement of [3H]CP-55940 from human recombinant CB1 receptor expressed in HEK293 cell membranes incubated for 1.5 hrs
pKi: −log10 of the molar value.
Value kind: pKi

Given item "CC(C)c1nc2ccccc2n1C(=O)c1cccc2ccccc12" , the value recorded as its pKi is < 5.00

Given item "COc1ccc(C(=O)n2c(CC(C)C)nc3ccccc32)cc1" , the value recorded as its pKi is < 5.00

Given item "COc1ccc(C(=O)n2c(C3CCCCC3)nc3ccccc32)cc1" , the value recorded as its pKi is < 5.00

Given item "COc1ccc(C(=O)n2c(C3CCC3)nc3ccccc32)cc1" , the value recorded as its pKi is < 5.00

Given item "CC(C)(C)c1nc2ccccc2n1C(=O)c1cccc2ccccc12" , the value recorded as its pKi is < 5.00

Given item "COc1ccc(C(=O)n2c(C(C)(C)C)nc3ccccc32)cc1" , the value recorded as its pKi is < 5.00

Given item "O=C(c1cccc2ccccc12)n1c(C2CCCCC2)nc2ccccc21" , the value recorded as its pKi is 5.54

Given item "CCCc1nc2ccccc2n1C(=O)c1cccc2ccccc12" , the value recorded as its pKi is < 5.00

Given item "O=C(c1cccc2ccccc12)c1csc2ccccc12" , the value recorded as its pKi is < 5.00

====

- Protocol description: Cytotoxicity against human HL60 cells assessed as reduction in cell viability measured after 72 hrs by MTT assay
- Type: functional, cell-based
- Measurement conditions: HL-60, 72 h
pIC50: −log10 of the molar value.
Classify by measured pIC50: true (1) if it is equal to or exceeds 7, false (0) if it is smaller.

QUERY: Is it the case that "COc1ccc(C(=O)n2c(C)nc3ccccc32)cc1" has pIC50 reaching or exceeding 7?
RESULT: true (1)

QUERY: Is it the case that "COc1ccc(C(=O)n2c(C(C)C)nc3ccccc32)cc1" has pIC50 reaching or exceeding 7?
RESULT: false (0)

QUERY: Is it the case that "Cc1c(C(=O)c2cccc3ccccc23)c2cccc3c2n1[C@H](CN1CCOCC1)CO3" has pIC50 reaching or exceeding 7?
RESULT: true (1)

QUERY: Is it the case that "CCCCCc1sc2ccccc2c1C(=O)c1cccc2ccccc12" has pIC50 reaching or exceeding 7?
RESULT: false (0)

QUERY: Is it the case that "O=C(c1cccc2ccccc12)n1c(C2CCC2)nc2ccccc21" has pIC50 reaching or exceeding 7?
RESULT: false (0)

QUERY: Is it the case that "O=C(c1cc2ccccc2s1)c1cccc2ccccc12" has pIC50 reaching or exceeding 7?
RESULT: true (1)

QUERY: Is it the case that "COc1ccc(C(=O)n2c(C3CCC3)nc3ccccc32)cc1" has pIC50 reaching or exceeding 7?
RESULT: true (1)

QUERY: Is it the case that "O=C(c1cccc2ccccc12)n1c(C2CCCCC2)nc2ccccc21" has pIC50 reaching or exceeding 7?
RESULT: false (0)

QUERY: Is it the case that "O=C(c1cccc2ccccc12)c1csc2ccccc12" has pIC50 reaching or exceeding 7?
RESULT: true (1)

====

- Protocol description: Cytotoxicity against African green monkey Vero cells assessed as reduction in cell viability measured after 72 hrs by MTT assay
- Format: toxicity, cell-based
- Measurement conditions: Chlorocebus sabaeus (African green monkey)
Can you tell me IC50 at 72 h for the items I'm about to list?

Given item "COc1ccc(C(=O)n2c(C3CCCC3)nc3ccccc32)cc1" , the value recorded as its IC50 at 72 h is > 10 µM

Given item "CCCCc1nc2ccccc2n1C(=O)c1ccc(OC)cc1" , the value recorded as its IC50 at 72 h is 0.17 µM

Given item "Cc1nc2ccccc2n1C(=O)c1cccc2ccccc12" , the value recorded as its IC50 at 72 h is > 10 µM

====

- Target desc: Cannabinoid receptor 2 (Homo sapiens)
- Sequence (P34972 whole entry): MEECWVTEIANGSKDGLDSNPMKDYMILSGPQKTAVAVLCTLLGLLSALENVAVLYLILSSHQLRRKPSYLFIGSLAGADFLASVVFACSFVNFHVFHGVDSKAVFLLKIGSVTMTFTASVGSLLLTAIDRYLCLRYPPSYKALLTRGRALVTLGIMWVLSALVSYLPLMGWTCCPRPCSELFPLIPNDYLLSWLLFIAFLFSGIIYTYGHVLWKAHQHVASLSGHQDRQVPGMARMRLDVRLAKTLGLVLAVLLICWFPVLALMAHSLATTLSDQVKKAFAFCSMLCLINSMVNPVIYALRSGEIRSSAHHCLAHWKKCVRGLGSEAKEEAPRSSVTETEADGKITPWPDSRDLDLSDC
- Protocol description: Displacement of [3H]CP-55940 from human recombinant CB2 receptor expressed in HEK293 cell membranes incubated for 1.5 hrs
Value kind: IC50

Form: item "Cc1nc2ccccc2n1C(=O)c1cccc2ccccc12" ; test system Cannabinoid receptor 2 (Homo sapiens); IC50: > 10 µM

Form: item "COc1ccc(C(=O)n2c(C)nc3ccccc32)cc1" ; test system Cannabinoid receptor 2 (Homo sapiens); IC50: > 10 µM

Form: item "CCCc1nc2ccccc2n1C(=O)c1cccc2ccccc12" ; test system Cannabinoid receptor 2 (Homo sapiens); IC50: > 10 µM

====

- Organism: Homo sapiens
- Protocol description: Selectivity index, ratio of Ki for displacement of [3H]CP-55940 from human recombinant CB1 receptor to Ki for displacement of [3H]CP-55940 from human recombinant CB2 receptor
Value kind: Ratio Ki

Given item "COc1ccc(Cn2c(-c3ccc(OC)cc3)nc3ccccc32)cc1" , the value recorded as its Ratio Ki is > 14

Given item "CCCCCc1sc2ccccc2c1C(=O)c1ccc(OC)cc1" , the value recorded as its Ratio Ki is > 33

Given item "CCCc1nc2ccccc2n1C(=O)c1ccc(OC)cc1" , the value recorded as its Ratio Ki is > 5.26

Given item "COc1ccc(C(=O)n2c(C(C)C)nc3ccccc32)cc1" , the value recorded as its Ratio Ki is > 12.5

Given item "CC(C)Cc1nc2ccccc2n1C(=O)c1cccc2ccccc12" , the value recorded as its Ratio Ki is > 100

Given item "CCCCc1nc2ccccc2n1C(=O)c1ccc(OC)cc1" , the value recorded as its Ratio Ki is > 6.25

Given item "COc1ccc(C(=O)n2c(-c3ccc(OC)cc3)nc3ccccc32)cc1" , the value recorded as its Ratio Ki is > 6.7

Given item "COc1ccc(C(=O)n2c(C(C)(C)C)nc3ccccc32)cc1" , the value recorded as its Ratio Ki is > 16.7

Given item "COc1ccc(C(=O)n2c(C3CCC3)nc3ccccc32)cc1" , the value recorded as its Ratio Ki is > 11

Given item "CC(C)(C)c1nc2ccccc2n1C(=O)c1cccc2ccccc12" , the value recorded as its Ratio Ki is > 125

Given item "COc1ccc(C(=O)n2c(C3CCCCC3)nc3ccccc32)cc1" , the value recorded as its Ratio Ki is > 14

Given item "CCCc1sc2ccccc2c1C(=O)c1ccc(OC)cc1" , the value recorded as its Ratio Ki is > 33

Given item "CCc1sc2ccccc2c1C(=O)c1ccc(OC)cc1" , the value recorded as its Ratio Ki is > 6.2

Given item "O=C(c1cccc2ccccc12)c1csc2ccccc12" , the value recorded as its Ratio Ki is > 50

Given item "O=C(c1cc2ccccc2s1)c1cccc2ccccc12" , the value recorded as its Ratio Ki is 2.7

Given item "COc1ccc(-c2sc3ccccc3c2C(=O)c2cccc3ccccc23)cc1" , the value recorded as its Ratio Ki is 17

Given item "COc1ccc(C(=O)n2c(C3CCCC3)nc3ccccc32)cc1" , the value recorded as its Ratio Ki is > 20

Given item "CCCCCc1sc2ccccc2c1C(=O)c1cccc2ccccc12" , the value recorded as its Ratio Ki is 1.7

Given item "COc1ccc(C(=O)c2c(-c3ccc(OC)cc3)sc3ccccc23)cc1" , the value recorded as its Ratio Ki is 7

Given item "CC(C)c1nc2ccccc2n1C(=O)c1cccc2ccccc12" , the value recorded as its Ratio Ki is > 20

Given item "CCc1sc2ccccc2c1C(=O)c1cccc2ccccc12" , the value recorded as its Ratio Ki is 7.28

Given item "O=C(c1cccc2ccccc12)n1c(C2CCCC2)nc2ccccc21" , the value recorded as its Ratio Ki is > 14

====

- Target desc: Cannabinoid receptor 2 (Homo sapiens)
- Protocol description: Displacement of [3H]CP-55940 from human recombinant CB2 receptor expressed in HEK293 cell membranes incubated for 1.5 hrs
pKi: −log10 of the molar value.
Classify by measured pKi: condition met if it is equal to or exceeds 6, condition not met if it is smaller.

QUERY: Is it the case that "COc1ccc(C(=O)n2c(C)nc3ccccc32)cc1" has pKi reaching or exceeding 6?
RESULT: condition not met

QUERY: Is it the case that "COc1ccc(-c2nc3ccccc3n2C(=O)c2cccc3ccccc23)cc1" has pKi reaching or exceeding 6?
RESULT: condition not met

QUERY: Is it the case that "CCc1sc2ccccc2c1C(=O)c1ccc(OC)cc1" has pKi reaching or exceeding 6?
RESULT: condition not met

QUERY: Is it the case that "CC(C)Cc1sc2ccccc2c1C(=O)c1cccc2ccccc12" has pKi reaching or exceeding 6?
RESULT: condition met

QUERY: Is it the case that "CCCc1nc2ccccc2n1C(=O)c1ccc(OC)cc1" has pKi reaching or exceeding 6?
RESULT: condition not met

QUERY: Is it the case that "COc1ccc(C(=O)n2c(CC(C)C)nc3ccccc32)cc1" has pKi reaching or exceeding 6?
RESULT: condition not met

QUERY: Is it the case that "CCCc1sc2ccccc2c1C(=O)c1ccc(OC)cc1" has pKi reaching or exceeding 6?
RESULT: condition met
